Entries annotated with measured solubility (g/100 g solution)
- measurement_description: xn = mol fraction of the nth substance listed, in the solute-free solvent
- condition_info: 323.15 K; x2 = 0.7297
endpoint_name: solubility (g/100 g solution)

> print(dat)
                                   molecule  measured.number
1  CN1CCN(C2=Nc3cc(Cl)ccc3Nc3ccccc32)CC1 + CC(C)O + O             3.45
2                  Nc1nccnc1Cl + CC(C)O + O             2.26
3  Cc1[nH]c(=O)c(C#N)cc1-c1ccncc1 + CC(C)O + O           0.0314
4   c1ccc2[nH]c(-c3cscn3)nc2c1 + CC(C)O + O              0.6
5     c1ccc2[nH]c(-c3cscn3)nc2c1 + CCCO + O              1.1
6  Nc1cccc(S(=O)(=O)c2cccc(N)c2)c1 + CC(C)O + O             2.57
